Test: Cytotoxicity against human MT2 cells after 72 hrs by MTT assay
Format: cell-based
Conditions: MT2 cells
value_kind: CC50 at 72 h (µM)
# number only, unit µM dropped from output

>  <mol_smiles>
Cc1cccc(C)c1OCC(=O)N[C@@H](Cc1ccccc1)[C@H](O)[C@@H](O)[C@@H]1CCCN1C(=O)COc1c(C)cccc1C

>  <unit_abbreviation>
µM

>  <result_value>
300

$$$$

Enquiry: Give the value of CC50 at 72 h reported for the following: `CC(=O)N[C@@H](Cc1c[nH]c2ccccc12)C(=O)N[C@H](C(=O)N[C@@H](Cc1ccccc1)[C@H](O)[C@@H](O)[C@@H]1CCCN1C(=O)[C@@H](NC(=O)[C@H](Cc1c[nH]c2ccccc12)NC(C)=O)C(C)C)C(C)C`
Return: 2500
